Molecular target: Caspase-1 (Homo sapiens, UniProt P29466)
Sequence (P29466 120-297 limits assumed): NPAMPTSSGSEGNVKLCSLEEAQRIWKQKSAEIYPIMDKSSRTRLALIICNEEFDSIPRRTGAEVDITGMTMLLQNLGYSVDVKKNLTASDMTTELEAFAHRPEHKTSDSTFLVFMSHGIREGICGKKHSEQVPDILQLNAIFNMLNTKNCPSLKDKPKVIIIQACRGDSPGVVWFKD
Sequence (P29466 317-404 limits assumed): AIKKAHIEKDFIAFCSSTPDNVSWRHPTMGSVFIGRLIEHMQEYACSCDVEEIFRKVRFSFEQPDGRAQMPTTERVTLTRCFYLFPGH
Assay: Caspase-1 enzyme assay, cleavage of fluorogenic substrate
Format: biochemical
Details: second order rate constant of enzyme inactivation; substrate Acetyl-Tyr-Val-Ala-Asp-amino-4-methylcoumarin
// values below are reported Kinact

- COMPOUND: "CC(C)[C@@H](C(=O)NC(CC(=O)O)C(=O)CF)N1Cc2ccccc2N(Cc2cccc(Cl)c2)C1=O (stereo partly shown)"
  RESULT: "107000 M⁻¹ s⁻¹"
- COMPOUND: "O=C(O)CC(NC(=O)Cn1ccc2ccccc2c1=O)C(=O)CF (stereo not shown)"
  RESULT: "248000 M⁻¹ s⁻¹"
- COMPOUND: "Cc1cccc(=O)n1CC(=O)NC(CC(=O)O)C(=O)CF (stereo not shown)"
  RESULT: "36000 M⁻¹ s⁻¹"

# context switch: different compound, same Kinact
State its Kinact on Caspase-1 (Homo sapiens, UniProt P29466): C[C@@H](C(=O)NC(CC(=O)O)C(=O)CF)n1c(=O)ccc2ccccc21 (stereo partly shown)
47000 M⁻¹ s⁻¹

###

Recorded Kinact for the following compounds
Target: Caspase-3 (Homo sapiens, UniProt P42574)
Sequence (P42574 29-175 limits assumed): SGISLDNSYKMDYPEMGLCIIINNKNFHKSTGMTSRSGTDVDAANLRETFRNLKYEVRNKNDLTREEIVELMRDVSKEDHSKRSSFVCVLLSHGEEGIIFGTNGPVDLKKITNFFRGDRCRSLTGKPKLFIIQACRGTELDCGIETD
Sequence (P42574 176-277 limits assumed): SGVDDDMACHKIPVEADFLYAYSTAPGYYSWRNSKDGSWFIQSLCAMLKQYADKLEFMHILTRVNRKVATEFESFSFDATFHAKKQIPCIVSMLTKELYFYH
Test: Caspase-3 enzyme assay, cleavage of fluorogenic substrate
Assay type: biochemical
Settings: second order rate constant of enzyme inactivation; substrate Acetyl-Asp-Glu-val-Asp-amino-4-methylcoumarin
// return numeric value only (unit: M⁻¹ s⁻¹, not printed)

In the examples that follow, each entry is paired with its recorded Kinact.
- COMPOUND: "O=C(O)CC(NC(=O)Cn1ccc2ccccc2c1=O)C(=O)CF (stereo not drawn)"
  MEASURED_PROPERTY: "Kinact"
  NUMERIC_READOUT: 130000
- COMPOUND: "O=C(O)CC(NC(=O)Cn1cnc2sccc2c1=O)C(=O)CF (stereo not drawn)"
  MEASURED_PROPERTY: "Kinact"
  NUMERIC_READOUT: 64000
- COMPOUND: "CC(C)[C@@H](C(=O)NC(CC(=O)O)C(=O)CF)N1Cc2ccccc2N(Cc2cccc(Cl)c2)C1=O (stereo partly drawn)"
  MEASURED_PROPERTY: "Kinact"
  NUMERIC_READOUT: 67000
- COMPOUND: "CCC[C@@H](C(=O)NC(CC(=O)O)C(=O)CF)n1cnc2ccccc2c1=O (stereo partly drawn)"
  MEASURED_PROPERTY: "Kinact"
  NUMERIC_READOUT: 185000
- COMPOUND: "CC[C@@H](C(=O)NC(CC(=O)O)C(=O)CF)n1cnccc1=O (stereo partly drawn)"
  MEASURED_PROPERTY: "Kinact"
  NUMERIC_READOUT: 420000

# context switch: different compound, same Kinact
Tell me the measured Kinact of C[C@@H](C(=O)NC(CC(=O)O)C(=O)CF)n1c(=O)ccc2ccccc21 (stereo partly drawn) , please.
24000
